Tested on: Human immunodeficiency virus 1
assay-summary: Antiviral activity against Human immunodeficiency virus 1 SF33 infected in human MT4 cells assessed decrease in p24 level after 7 days by ELISA
Assay type: functional, organism-based
run-parameters: Human immunodeficiency virus 1, SF33, MT4, 168 h
result-type: EC50
Give the value; after it, write the unit.

# count of solved cases: 3
compound: CC(C)c1c(O[C@H]2CCCC[C@@H]2C)cc(CCc2ccccc2)[nH]c1=O (racemic)
EC50: 4 nM
//
compound: CC1CCCCC1Oc1cc(CCc2ccccc2)[nH]c(=O)c1I (mixture of isomers)
EC50: 17 nM
//
compound: COc1ccc(Cc2cc(OC3CCCCC3C)c(C(C)C)c(=O)[nH]2)cc1 (mixture of isomers)
EC50: 6 nM

Would you kindly look at the next entry?
I have this compound here, CC(C)c1c(OC2CCCCC2C)cc(Cc2ccc(Cl)cc2)[nH]c1=O (mixture of isomers) , and I need its recorded EC50.
10 nM

---

assay-summary: Selectivity index, ratio of CC50 for human MT4 cells to EC50 for Human immunodeficiency virus 1 A17 infected in human MT4 cells
Type: toxicity, cell-based
run-parameters: read-out: Ratio CC50/EC50
result-type: selectivity ratio
Number, no unit, nothing else.

# count of solved cases: 3
compound: CC1CCCCC1Oc1cc(CCc2ccccc2)[nH]c(=O)c1Br (mixture of isomers)
obs-value: 23
--
compound: COc1ccc(Cc2cc(OC3CCCCC3C)c(C(C)C)c(=O)[nH]2)cc1 (mixture of isomers)
obs-value: 155
--
compound: CC(C)c1c(OC2CCCCC2C)cc(Cc2ccc(Cl)cc2)[nH]c1=O (mixture of isomers)
obs-value: 8

Would you kindly look at the next entry?
I have this compound here, CC(C)c1c(OC2CCCCC2C)cc(CCc2ccccc2)[nH]c1=O (mixture of isomers) , and I need its recorded selectivity ratio.
73

---

assay-summary: Cytotoxicity against human TZM-bl cells
Type: cell-based
Recorded CC50, one value per entry.
# output: bare number, implied unit µM

# count of solved cases: 4
compound: CC(C)c1c(OC2CCCCC2C)cc(CCc2ccccc2)[nH]c1=O (mixture of isomers)
CC50, µM: 114
--
compound: CC(C)c1c(OC2CCCCC2C)cc(Cc2ccc(F)cc2)[nH]c1=O (mixture of isomers)
CC50, µM: 74.5
--
compound: CC1CCCCC1Oc1cc(CCc2ccccc2)[nH]c(=O)c1Br (mixture of isomers)
CC50, µM: 83.1
--
compound: CC(C)c1c(Cc2ccccc2)n(COCc2ccccc2)c(=O)[nH]c1=O
CC50, µM: 65.8

I have this compound here, Cc1ccc(Cc2cc(OC3CCCCC3C)c(C(C)C)c(=O)[nH]2)cc1 (mixture of isomers) , and I need its recorded CC50.
99

Follow-up item: COc1ccc(Cc2cc(OC3CCCCC3C)c(C(C)C)c(=O)[nH]2)cc1 (mixture of isomers)
132

Follow-up item: CC(C)c1c(O[C@H]2CCCC[C@H]2C)cc(CCc2ccccc2)[nH]c1=O (racemic)
189

Follow-up item: CC(C)c1c(OC2CCCCC2C)cc(Cc2ccc(Cl)cc2)[nH]c1=O (mixture of isomers)
109

Follow-up item: Cc1ccnc2c1NC(=O)c1cccnc1N2C1CC1 [NEVIRAPINE]
204

---

Tested on: Human immunodeficiency virus 1
assay-summary: Antiviral activity against Human immunodeficiency virus 1 SF33 infected in human MT4 cells assessed decrease in p24 level after 7 days by ELISA
Format: functional, organism-based
run-parameters: Human immunodeficiency virus 1, SF33, MT4, 168 h
result-type: pEC50
pEC50 field: float, defined as -log10 of concentration (mol/L).

# count of solved cases: 4
compound: CC1CCCCC1Oc1cc(CCc2ccccc2)[nH]c(=O)c1Br (mixture of isomers)
test-target: Human immunodeficiency virus 1
pEC50: 8.52
--
compound: CC(C)c1c(O[C@H]2CCCC[C@H]2C)cc(CCc2ccccc2)[nH]c1=O (racemic)
test-target: Human immunodeficiency virus 1
pEC50: 7.17
--
compound: CC(C)c1c(OC2CCCCC2C)cc(CCc2ccccc2)[nH]c1=O (mixture of isomers)
test-target: Human immunodeficiency virus 1
pEC50: 8.15
--
compound: CC(C)c1c(OC2CCCCC2C)cc(Cc2ccc(F)cc2)[nH]c1=O (mixture of isomers)
test-target: Human immunodeficiency virus 1
pEC50: 7.64

Would you kindly look at the next entry?
Form: Entry = Cc1ccc(Cc2cc(OC3CCCCC3C)c(C(C)C)c(=O)[nH]2)cc1 (mixture of isomers) | System = Human immunodeficiency virus 1 | pEC50 = ____
8.22
